# experiment_notes: NCI Yeast Anticancer Drug Screen. Data for the CLN2oe strain (AID 163);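 further: 0% = growth of vehicle-only control cultures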
# test_settings: S. cerevisiae CLN2oe strain, at 11.0 µM, hits give high values
About 79,000 compounds went through this panel and 15% of them were active in at least one assay; those are over-represented in the sample as a whole.
Below: a set of entries, each annotated with reported growth inhibition.
Number in %, nothing else.

Record excerpt, results attached:
structure_notation | measurement_units | observed
S=C(S)NN1CCOCC1 | % | 29
CCN(CC)C(C)(C)C(=O)/C=C/c1ccccc1 | % | -4
CSC(=S)Nc1cccc(C)n1 | % | -13

// query Note growth inhibition for the compound shown: CC(=O)[O][Bi]([c]1ccccc1)[c]1ccccc1
// result 31

// query State its growth inhibition: O=C(O)c1ccccc1-c1ccccc1C(=O)Nc1ccc2c(c1)Cc1ccccc1-2
// result 20
